Test: activity coefficient (dimensionless); of the first substance listed, at infinite dilution; xn = mol fraction of the nth substance listed
Conditions: 313.15 K; 101.33 kPa; Liquid; Chromatography; x1 = 0
Assay Endpoint: activity coefficient
Answers are plain numbers.

Answered examples (3):
Molecule	activity coefficient
Cc1ccccc1C [1,2-dimethylbenzene] + CCCCCCCCCCCCCC[P+](CCCCCC)(CCCCCC)CCCCCC.N#C[N-]C#N	0.525
C=CCCCCCCC [1-nonene] + CCCCCCCCCCCCCC[P+](CCCCCC)(CCCCCC)CCCCCC.N#C[N-]C#N	1.41
CCC(C)(C)C [2,2-dimethylbutane] + CCCCCCCCCCCCCC[P+](CCCCCC)(CCCCCC)CCCCCC.N#C[N-]C#N	1.11

Consider the molecule C=CCCCC [hex-1-ene] + CCCCCCCCCCCCCC[P+](CCCCCC)(CCCCCC)CCCCCC.N#C[N-]C#N and give its recorded activity coefficient.
0.915

====

Assay: activity coefficient (dimensionless); of the first substance listed, at infinite dilution; xn = mol fraction of the nth substance listed
Conditions: 313.15 K; 101.33 kPa; Liquid; Chromatography; x1 = 0
Outcome: class 1 for activity coefficient of at least 1; class 0 for anything lower.

Compound	Discrete Label
Cc1ccc(C)cc1 [1,4-dimethylbenzene] + CCCCCCCCCCCCCC[P+](CCCCCC)(CCCCCC)CCCCCC.N#C[N-]C#N	class 0

Has C=CCCCCC [1-heptene] + CCCCCCCCCCCCCC[P+](CCCCCC)(CCCCCC)CCCCCC.N#C[N-]C#N a recorded activity coefficient greater than or equal to 1?
class 1

Has CO [methanol] + CCCCCCCCCCCCCC[P+](CCCCCC)(CCCCCC)CCCCCC.N#C[N-]C#N a recorded activity coefficient greater than or equal to 1?
class 0

Has C1CCCCC1 [cyclohexane] + CCCCCCCCCCCCCC[P+](CCCCCC)(CCCCCC)CCCCCC.N#C[N-]C#N a recorded activity coefficient greater than or equal to 1?
class 0

Has Cc1cccc(C)c1 [1,3-dimethylbenzene] + CCCCCCCCCCCCCC[P+](CCCCCC)(CCCCCC)CCCCCC.N#C[N-]C#N a recorded activity coefficient greater than or equal to 1?
class 0

Has CCCCO [butan-1-ol] + CCCCCCCCCCCCCC[P+](CCCCCC)(CCCCCC)CCCCCC.N#C[N-]C#N a recorded activity coefficient greater than or equal to 1?
class 0

Has CCC(C)=O [butanone] + CCCCCCCCCCCCCC[P+](CCCCCC)(CCCCCC)CCCCCC.N#C[N-]C#N a recorded activity coefficient greater than or equal to 1?
class 0

Has CCCO [propan-1-ol] + CCCCCCCCCCCCCC[P+](CCCCCC)(CCCCCC)CCCCCC.N#C[N-]C#N a recorded activity coefficient greater than or equal to 1?
class 0

====

Assay: activity coefficient (dimensionless); of the first substance listed, at infinite dilution; xn = mol fraction of the nth substance listed
Settings: 333.15 K; 101.33 kPa; Liquid; Chromatography; x1 = 0
Labelling: activity coefficient reported below 0.6 becomes MET; at or above becomes NOT MET.

Compound	Discrete Label
CC(C)=O [acetone] + CCCCCCCCCCCCCC[P+](CCCCCC)(CCCCCC)CCCCCC.N#C[N-]C#N	MET
c1ccccc1 [benzene] + CCCCCCCCCCCCCC[P+](CCCCCC)(CCCCCC)CCCCCC.N#C[N-]C#N	MET
C1CCCCC1 [cyclohexane] + CCCCCCCCCCCCCC[P+](CCCCCC)(CCCCCC)CCCCCC.N#C[N-]C#N	NOT MET

Does C1CCOC1 [tetrahydrofuran] + CCCCCCCCCCCCCC[P+](CCCCCC)(CCCCCC)CCCCCC.N#C[N-]C#N have activity coefficient strictly under 0.6?
MET

Does CCCCO [butan-1-ol] + CCCCCCCCCCCCCC[P+](CCCCCC)(CCCCCC)CCCCCC.N#C[N-]C#N have activity coefficient strictly under 0.6?
MET

Does CCc1ccccc1 [ethylbenzene] + CCCCCCCCCCCCCC[P+](CCCCCC)(CCCCCC)CCCCCC.N#C[N-]C#N have activity coefficient strictly under 0.6?
NOT MET

Does CO [methanol] + CCCCCCCCCCCCCC[P+](CCCCCC)(CCCCCC)CCCCCC.N#C[N-]C#N have activity coefficient strictly under 0.6?
MET

Does C1CCCCCCC1 [cyclooctane] + CCCCCCCCCCCCCC[P+](CCCCCC)(CCCCCC)CCCCCC.N#C[N-]C#N have activity coefficient strictly under 0.6?
NOT MET
